system: MOLT-4; assay: NCI tumour cell line growth inhibition, 48 h
The source made the active and inactive calls. Rule as the data show it: active = GI50 up to about 1.1 µM and inactive = higher.
Outcome codes: active, inactive

compound	label.value
CC(C)=CCCc1c(C)ccc2c1C(=O)C(=O)C(C(C)C)=C2	inactive
C=C1C(C(=O)OC)[C@H]1C(=O)OC (some centres not stated)	inactive
CCC(C)C(NC(=O)C(CCCCN)NC(=O)C(NC(=O)C(CCC(N)=O)NC(=O)C(CCCNC(=N)N)NC(C)=O)C(C)CC)C(=O)NC(Cc1c[nH]c2ccccc12)C(=O)NC(Cc1ccccc1)C(=O)NC(CCC(N)=O)C(=O)NC(CC(N)=O)C(=O)NC(CCCNC(=N)N)C(=O)NC(CCCNC(=N)N)C(=O)NC(CCSC)C(=O)NC(CCCCN)C(=O)NC(Cc1c[nH]c2ccccc12)C(=O)NC(CCCCN)C(=O)NC(CCCCN)C(N)=O (configuration not stated)	inactive
O=C1CSC(c2c[nH]c3ccccc23)N1c1cccc([N+](=O)[O-])c1 (configuration not stated)	inactive
COC(=O)c1ccc2c(c1)C(NC(C)=O)CCc1cc(OC)c(OC)c(OC)c1-2 (configuration not stated)	active
COc1ccc(C(=O)N2c3ccccc3N(C)n3cccc3C2CC(=O)O)cc1 (configuration not stated)	inactive
COC[C@H](C)/N=C/N1CCc2ccccc2C1(Cc1ccccc1)Cc1ccccc1	inactive
COc1ccccc1NC(=S)N/N=C/c1ccccn1	active
Cc1cc2c3ccccc3n(C)c2c2c1C(=O)c1ccccc1C2=O	inactive
COc1ccc(CNc2nc3ccccc3nc2-c2cccs2)cc1	inactive
O=C1CC23CC(=O)CC2(C1)c1ccccc1C3=O (configuration not stated)	inactive
c1ccc2c3c(ccc2c1)CSCc1ccc2ccccc2c1-3	inactive
CC1=Nc2nc3ccccc3n2C(C)(C)C1	inactive
Cc1ccc(C2(c3ccc(F)cc3)OC(=O)c3ccccc32)c(O)c1 (configuration not stated)	inactive
COc1ccc(OCc2ccc3nc(-c4ccccc4)c(Cl)nc3c2)cc1	inactive
O=C(O)CCNc1ncc2c(n1)-c1ccccc1OC2	inactive
N=C(N)NC(=N)Nc1ccc(S(N)(=O)=O)cc1	inactive
CC(C)(C)C1(O)Cc2ccccc2C(=O)O1 (configuration not stated)	inactive
C=C1C(=O)O[C@@H]2C[C@@H]3[C@]4(CC[C@]5(C)[C@@H]([C@H](C)CC/C=C(\C)C=O)CC[C@@]35C)C[C@]4(CCC(=O)OC)[C@H]12	active
CO/C(N)=C(C#N)/N=C/c1cccnc1	inactive
CC1=C(C(=O)Nc2cccc(Cl)c2)C(c2ccc([N+](=O)[O-])cc2)C(C(=O)Nc2cccc(Cl)c2)=C(C)N1	inactive
Cc1cc(S(=O)(=O)Nc2nc(N)n[nH]2)c(Cl)cc1Cl	inactive
CC(C)(C)OC(=O)Cc1ccc2c(ccn2Cc2ccccc2)c1	inactive
CN(C)c1nc(N)nc(CS)n1	inactive
CCCC(=O)OC[n+]1ccc2c(C)c3[nH]c4ccccc4c3c(C)c2c1	active
O=C(O)CCC1CCc2cccc(OCC(=O)O)c2C1=O (configuration not stated)	inactive
Cc1cc(NS(=O)(=O)c2ccc(NC(=O)c3ccc(Cl)c4c(Nc5ccc(S(=O)(=O)Nc6cc(C)on6)cc5)c5ccccc5nc34)cc2)no1	inactive
Nc1nc(Nc2ccccc2)sc1C(=O)c1c[nH]c2ccccc12	inactive
CC(C)=C1CCC(CN(C)C)C1=O (configuration not stated)	inactive
NCC(=O)NC(CO)C(=O)O (configuration not stated)	inactive
C1CC2=C(C1)C1=S(S2)SC2=C1CCC2	inactive
O=c1cc(N2CCOCC2)n2c(ccc3ccccc32)n1	inactive
O=C1O[C@H](C(Cl)(Cl)Cl)N2CCCC12 (some centres not stated)	inactive
O=C1CC2C(=O)N(Cc3ccccc3)C1C=C2S(=O)(=O)c1ccccc1 (configuration not stated)	inactive
O=C(CCl)N1CCN(c2ccccc2)CC1	inactive
CC1(c2nc3ccccc3[nH]2)CCC(CO)C(C)(C)O1 (configuration not stated)	inactive
C=C(CN(C)C)C1(c2ccccc2)CC2(CCCC2)C(=O)O1 (configuration not stated)	inactive
Cn1c2c(c3ccccc31)CCN(CCCCN1CCN(c3cccc(Cl)c3)CC1)C2=O	inactive
CCCCCCCCCC/C=C/C=O	inactive
COC(=O)[C@@H](NC(=O)N(Cc1ccccc1)C[C@H](CC(C)C)NC(=O)[C@@H](NC(=O)OC(C)(C)C)C(C)C)C(C)C	inactive
CCOC(=O)c1ncn(CCc2ccc(Cl)cc2)c1C	inactive
CC(=O)Nc1ccc(/C=c2\sc3nnc(-c4cccnc4)n3c2=O)cc1	inactive

====

tested on: UACC-257; experiment: NCI tumour cell line growth inhibition, 48 h
The source made the active and inactive calls. Rule as the data show it: active = GI50 up to about 1.1 µM and inactive = higher.
Measured GI50 accompanies every entry in the list below.

compound	target.system	GI50
CCOC(=N)CC(=O)Nc1ccc(Cl)cc1	UACC-257	> 100 µM (inactive)
N/C(S)=N/N=C/c1ccc(O)cn1	UACC-257	22.4 µM (inactive)
C=CCN1C(=O)/C(=C/c2ccc(C)cc2)NC1=S	UACC-257	43.6 µM (inactive)
CC1=C2[C@@H](c3ccccc3)C3C=CC2(C=C3C(F)(F)F)N(C(=O)NC2CCCCC2)C1=O (stereo not given in full)	UACC-257	36.2 µM (inactive)
Cc1cc(S(=O)(=O)Nc2nc(N)n[nH]2)c(Cl)cc1Cl	UACC-257	> 10 µM (inactive)
COc1ccc(OCc2ccc3nc(-c4ccccc4)c(Cl)nc3c2)cc1	UACC-257	> 100 µM (inactive)
NC(Cc1nnn[nH]1)C(=O)O (stereo not given)	UACC-257	> 100 µM (inactive)
Cc1n[nH]c(=O)n1/N=C\c1ccccc1	UACC-257	> 100 µM (inactive)
O=S(=O)(O)c1ccc(-c2c3nc(c(-c4ccc(S(=O)(=O)O)cc4)c4ccc([nH]4)c(-c4ccc(S(=O)(=O)O)cc4)c4nc(c(-c5ccc(S(=O)(=O)O)cc5)c5ccc2[nH]5)C=C4)C=C3)cc1	UACC-257	> 100 µM (inactive)
CC(C)(C)c1cc(C(C)(C)C)c(SS(=O)(=O)O)c(O)c1O	UACC-257	79.1 µM (inactive)

====

test system: Malme-3M; test: NCI tumour cell line growth inhibition, 48 h
Calls of active or inactive are those of the source. Cut-off read from the data, not from the text of the source: active = GI50 up to about 1.1 µM and inactive = higher.
Listed next: entries and their corresponding GI50.
outcome.measure: GI50

> print(dat)
                                    molecule             measured
 1  COc1cccc(C2SC(=N)Nc3c2c(C)nn3C(=O)Cc2ccccc2)c1 (stereo not given)  > 100 µM (inactive)
 2  Cc1ccc(/N=N/c2c(O)c(C(=O)Nc3ccccc3)cc3ccccc23)c([N+](=O)[O-])c1  > 100 µM (inactive)
 3  O=C(NCCCN1CCN(CCCNC(=O)c2cccc3ccccc23)CC1)c1cccc2ccccc12   57.4 µM (inactive)
 4  O=C(Nc1ccc(Cl)cc1C(=O)O)c1ccc([N+](=O)[O-])cc1   4.95 µM (inactive)
 5  O=C(COc1ccc(Cl)cc1)N1N=C(c2ccc([N+](=O)[O-])o2)CC1(O)c1ccccc1 (stereo not given)   10.4 µM (inactive)
 6  CC(=O)NC1(C)CCC(C(C)(C)NC(C)=O)CC1 (stereo not given)  > 100 µM (inactive)
 7  COc1cc(C2C(Cl)C(=O)N2NC(=O)Cc2ccccc2)cc(Br)c1O (stereo not given)  > 100 µM (inactive)
 8  CC(=O)OC1CC(n2cc(F)c(=O)[nH]c2=O)OC1CO (stereo not given)     18 µM (inactive)
 9        CNS(=O)(=O)NNS(=O)(=O)c1ccc(Cl)cc1  > 100 µM (inactive)
10  C/C(=N\NC(=N)N)C(CN(C)C)C(c1ccccc1)c1c(O)c2ccccc2oc1=O (stereo not given)  > 100 µM (inactive)

====

tested on: MDA-N; experiment: NCI tumour cell line growth inhibition, 48 h
Calls of active or inactive are those of the source. No stated cut-off is given here; in the data, active = GI50 up to about 1.1 µM and inactive = higher. Where a SMILES comes first, the peptide text is derived from it. The star is where a group is joined. Cbz = O=C(OCc1ccccc1)*; Bn = c1ccc(C*)cc1
Listed below: GI50 values for each entry.
outcome.measure: GI50

compound	outcome.measure	measured
COc1cc(COC(=O)NC(Cc2cccs2)C(=O)O)c([N+](=O)[O-])cc1OC (centres undefined)	GI50	> 100 µM (inactive)
CCN(CC)CCc1c2c(nc3ccccc13)C(=O)c1cccnc1C2=O	GI50	1.67 µM (inactive)
CC(=O)OCC(C)C1=C(O)C(=O)C2(C)C/C=C(/C)CC/C=C(\C)CCC(O)C(C)CCC12 (centres undefined)	GI50	17 µM (inactive)
NC(=S)N/N=C/c1c[nH]c2ccccc12	GI50	> 100 µM (inactive)
O=P(O)(O)CN1CCN(CP(=O)(O)O)CCN(CP(=O)(O)O)CCN(CP(=O)(O)O)CC1	GI50	79.4 µM (inactive)
O=C1C(Br)=C(Br)C(=O)c2c(O)ccc(O)c21	GI50	2.49 µM (inactive)
COC(=O)C(Cc1ccc(O)cc1)NC(=O)C(COCc1ccccc1)NC(=O)OCc1ccccc1 (centres undefined) (Cbz-Ser(Bn)-Tyr-OMe; configuration not given here)	GI50	17.6 µM (inactive)
Cc1ccc(C2(c3ccc(F)cc3)OC(=O)c3ccccc32)c(O)c1 (centres undefined)	GI50	12 µM (inactive)
COP(=O)(OC)/C(=C/c1c[nH]c2ccccc12)C(=O)O	GI50	> 100 µM (inactive)
